Hello, the source for this data is ChEMBL document CHEMBL5728247, in case you need it.

Quick record: IC50, Tyrosine-protein kinase BTK (Homo sapiens).
OBSERVABLE: IC50 (nM)

COMPOUND STRUCTURE STRING: C=CC(=O)Nc1cccc(N(C(=O)OCc2ccccc2)c2ccnc(Nc3cnn(CCN4CCOCC4)c3)n2)c1
RECORDED VALUE: 5.74
//
COMPOUND STRUCTURE STRING: C=CC(=O)Nc1cccc(N(C(=O)OCc2ccccc2)c2ccnc(Nc3cnn(C4CCOCC4)c3)n2)c1
RECORDED VALUE: 3.12
